Experiment: growth inhibition of DIPG cells – cell-based, MIPE5.0 library, qHTS (AID 1347068);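 on IC50: cells exposed to compound for 48 hours before viability readout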
Cond: SU-DIPG-XXV viability
Records with an inconclusive call do not appear. Active and inactive are the calls of the source. Cut-off not given; nearly all actives show IC50 up to about 30 µM.
Endpoint label: IC50

Compound	Value measured
O=C(Nc1ccccc1)Nc1ccc(-c2ccc(C(=O)[C@@H]3CCC[C@H]3C(=O)O)cc2)cc1	inactive
Nc1nc(OCc2ccccc2)c2[nH]cnc2n1	inactive
CN1CCN(c2ncc(-c3cc(Cl)cc(Cl)c3Cl)c(N)n2)CC1	inactive
C#CCN(C)CC1=Cc2ccccc2Oc2ccccc21	inactive
O=C(c1ccc(F)cc1)N1CCC[C@H](c2nc(-c3ccc(F)cc3)no2)C1	inactive

stdin: So what does the record say about IC50 for CCCS(=O)(=O)c1nc(NC2CC2)cc(-c2ccc3c(ccn3C3CC(C)(C)NC(C)(C)C3)c2)n1 ?
stdout: 3120 nM (active)

stdin: Same thing, different compound: Cc1cccc(Nc2nc(-c3ccncc3)cs2)c1
stdout: inactive

stdin: Same again, this time with O=C(NC[C@H](O)CN1CCc2ccccc2C1)c1ccnc(NC2CCC2)c1
stdout: inactive

stdin: Moving on to the next compound: O=C(COCC(=O)N1CCN(C(c2ccccc2)c2ccccc2)CC1)Nc1ccc(Cl)cc1C(=O)O
stdout: inactive
